Reference for the values: the supplement of paper PMC10567573

B1: FBXO34 (parent)
chain: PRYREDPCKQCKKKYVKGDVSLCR

Variants of: B1
assay_overview: protein stability index of a GFP-peptide fusion (GPS, HEK-293T) (PSI 1-6); higher = more stable;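 also: lentivirally expressed fusions sorted by FACS into six bins by GFP to DsRed ratio, PSI derived from sequencing read proportions per bin multiplied by bin number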
recorded_conditions: c terminus: a fixed tail appended
Please enter T where protein stability index is greater than or equal to 3, and F where it is lower.

mutation_annotation=L22I class=T
mutation_annotation=C8Y class=T
mutation_annotation=D6L class=F
mutation_annotation=P1N class=T
mutation_annotation=D6Q class=T
mutation_annotation=R2L class=F
mutation_annotation=E5A class=F
mutation_annotation=K9Q class=F
mutation_annotation=P7I class=F
mutation_annotation=S21N class=F
mutation_annotation=K13Q class=F
